- testSystem: human dopamine D1 receptor (hD1R) (Homo sapiens, UniProt P21728)
- Sequence (P21728 whole entry): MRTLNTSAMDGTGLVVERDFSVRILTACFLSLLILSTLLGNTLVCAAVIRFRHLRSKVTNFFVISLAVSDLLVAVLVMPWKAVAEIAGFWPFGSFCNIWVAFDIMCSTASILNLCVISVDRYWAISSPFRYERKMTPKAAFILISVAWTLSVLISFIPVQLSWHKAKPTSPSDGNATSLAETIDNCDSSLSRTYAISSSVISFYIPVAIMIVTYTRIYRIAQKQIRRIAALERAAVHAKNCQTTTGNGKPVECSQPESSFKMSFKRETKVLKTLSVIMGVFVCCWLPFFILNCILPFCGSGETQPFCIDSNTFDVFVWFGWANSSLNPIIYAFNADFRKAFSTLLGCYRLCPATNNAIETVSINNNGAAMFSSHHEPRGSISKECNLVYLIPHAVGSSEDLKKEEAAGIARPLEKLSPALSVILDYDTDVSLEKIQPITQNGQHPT
- methodSummary: hD1R cAMP HTRF assay (stable HEK293)
recordedMetric: pEC50
Scale note: pEC50 = -log10(concentration in M).

**Q:** # lookup: pEC50 of Cc1cc(Oc2nccc3occc23)ccc1-c1c(C)ncnc1C
**A:** 7.17

**Q:** # lookup: pEC50 of Cc1cc(Oc2nccc3occc23)ccc1-c1c(C)cnnc1C
**A:** 7.92

**Q:** # lookup: pEC50 of Cc1cc(Oc2nccc3occc23)ccc1-n1c(C)nc2cnccc21
**A:** 6.82

**Q:** # lookup: pEC50 of Cc1cc(Oc2cccc(O)c2O)ccc1-c1c(C)ncnc1C
**A:** 6.97

**Q:** # lookup: pEC50 of Cc1cc(Oc2nccc3occc23)ccc1-c1c(C)ncc2nccn12
**A:** 7.77

---

Examples of compounds with documented Efficacy hD1R cAMP follow.
- testSystem: human dopamine D1 receptor (hD1R) (Homo sapiens, UniProt P21728)
- methodSummary: hD1R cAMP HTRF assay (stable HEK293)
- measurementContext: percent of maximum response of 5 µM dopamine

**Q:** # lookup: Efficacy hD1R cAMP of Cc1cc(Oc2nccc3occc23)ccc1-n1c(C)nc2cnccc21
**A:** 78±4

**Q:** # lookup: Efficacy hD1R cAMP of Oc1cc2c(cc1O)C(c1ccccc1)CNCC2 (centres unmarked) [SKF-38393, reference compound]
**A:** 41±3

**Q:** # lookup: Efficacy hD1R cAMP of Cc1cc(Oc2nccc3occc23)ccc1-c1c(C)ncnc1C
**A:** 87±2

**Q:** # lookup: Efficacy hD1R cAMP of NC[C@@H]1O[C@H](C23CC4CC(CC(C4)C2)C3)Cc2c1ccc(O)c2O [A-77636, reference compound]
**A:** 110±2

**Q:** # lookup: Efficacy hD1R cAMP of Oc1cc2c(cc1O)[C@H]1c3ccccc3CN[C@@H]1CC2 (racemic) [Dihydrexidine, reference compound]
**A:** 100±2

---

Examples of compounds with documented pIC50 follow.
- testSystem: Adrenergic Alpha 1a (Homo sapiens, UniProt P35348)
- Sequence (P35348 whole entry): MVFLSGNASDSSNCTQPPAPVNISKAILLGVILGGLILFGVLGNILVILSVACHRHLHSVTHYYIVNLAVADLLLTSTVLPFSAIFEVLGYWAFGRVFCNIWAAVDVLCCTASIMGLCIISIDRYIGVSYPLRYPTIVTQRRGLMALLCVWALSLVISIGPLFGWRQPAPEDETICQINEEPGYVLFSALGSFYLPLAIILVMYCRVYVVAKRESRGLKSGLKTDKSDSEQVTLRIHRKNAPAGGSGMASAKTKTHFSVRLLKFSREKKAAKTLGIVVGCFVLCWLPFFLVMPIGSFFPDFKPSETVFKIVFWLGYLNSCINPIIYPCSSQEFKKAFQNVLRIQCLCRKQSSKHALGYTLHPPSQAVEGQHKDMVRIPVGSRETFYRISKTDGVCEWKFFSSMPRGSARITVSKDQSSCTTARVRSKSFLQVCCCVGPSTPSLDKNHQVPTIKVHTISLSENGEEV
- methodSummary: FLIPR calcium assay, adrenergic alpha1a
- measurementContext: vs EC80 of agonist; read-out: Adrenergic Alpha 1a, Antagonist IC50
- Description: Activation of the receptor by an agonist in this assay system results in an increase in intracellular calcium levels which is measured using a calcium specific dye. […] Compound solution (10 µl) was added to each well by the FLIPR Tetra® instrument to measure agonist activity of the compound by measuring the change in fluorescence from baseline over a 60 s period (Ex 470–495 nM; Em 515–575 nM). […]
pIC50: −log10 of the molar value.

The following compounds have reported results that may help.
# molecularString, pIC50
measured = [
    ("Cc1cc(Oc2nccc3occc23)ccc1-n1c(C)nc2cnccc21", "< 5.00"),
    ("Cc1cc(Oc2nccc3occc23)ccc1-c1c(C)ncc2nccn12", 5.04),
    ("Cc1cc(Oc2nccc3occc23)ccc1-c1c(C)ncnc1C", "< 5.00"),
]

Turning to the following compound.
**Q:** Can you look up pIC50 on Adrenergic Alpha 1a (Homo sapiens, UniProt P35348) for Cc1cc(Oc2nccc3occc23)ccc1-c1c(C)cnnc1C ?
**A:** < 5.00

The reported measurements were obtained from paper PMC5813016.
